System: NF-κB pathway in THP-1 dual cells
Method Summary: THP-1 Dual Reporter Assay, NF-κB pathway (SEAP reporter)
Assay type: cell-based
Protocol Conditions: Homo sapiens, THP1-Dual, 18 h of stimulation, absorbance at 630 nm, read-out: THP1 Dual EC50 (μM) NFkB
# EC50 listing for each entry below

[
  {
    "Compound Structure": "COc1cc(CN(CCCc2cccnc2)Cc2nn(C)c3ccccc3c2=O)ccn1",
    "EC50": "≥ 20 µM"
  },
  {
    "Compound Structure": "COc1cc(CN(CCCc2cccnc2)Cc2c(C)oc3cc(N4CCOCC4)c(F)cc3c2=O)ccn1",
    "EC50": "≤ 10 µM"
  },
  {
    "Compound Structure": "O=c1c(CN(CCCn2cnc3ccccc32)Cc2ccncc2)coc2c1ccc1ccccc12",
    "EC50": "≤ 10 µM"
  }
]

Sure, the documented EC50 for CN(C)c1ccc(CCCN(Cc2ccncc2)Cc2coc3c(ccc4ccccc43)c2=O)cn1 is ≥ 20 µM

Sure, the documented EC50 for O=c1c(CN(CCCn2cnc3ccccc32)Cc2ccncc2)coc2ccccc12 is 10 to 20 µM

Sure, the documented EC50 for Cc1cc(CN(CCCn2ccnc2)Cc2coc3ccccc3c2=O)ccn1 is ≥ 20 µM

Sure, the documented EC50 for COc1cc(CN(CCCc2ccnnc2)Cc2cn(C)c3ccccc3c2=O)ccn1 is ≥ 20 µM

Sure, the documented EC50 for N#Cc1ccc2c(=O)c(CN(CCCn3ccnc3)Cc3ccncc3)coc2c1 is ≥ 20 µM

Sure, the documented EC50 for O=c1c(CN(CCCn2cnc3ncccc32)Cc2ccncc2)coc2c1ccc1ccccc12 is ≤ 10 µM

Sure, the documented EC50 for O=c1c(CN(CCCn2cccn2)Cc2ccncc2)coc2ccccc12 is ≥ 20 µM

Sure, the documented EC50 for Cc1cc(CN(CCCc2cccnc2)Cc2cn(C)c3ccccc3c2=O)ccn1 is 10 to 20 µM

Sure, the documented EC50 for O=c1c(CN(CCCc2ccccn2)Cc2ccncc2)coc2ccccc12 is ≥ 20 µM

The measurements presented in this section are drawn from patent US12162863B2.
